These measurements were taken from ChEMBL document CHEMBL1201862.

- Test system: MCF7
- Protocol Notes: NCI tumour cell line growth inhibition, 48 h
Calls of active or inactive are those of the source. Cut-off read from the data, not from the text of the source: active = GI50 up to about 1.1 µM and inactive = higher.
Test Readout: GI50

Answered cases to consult:
Ask: Let me know recorded GI50 for `COC(=O)c1ccc(-n2c(C)nc(=O)c(-c3ccccc3)c2C)cc1` , thanks.
Reply: > 100 µM (inactive)

Ask: Let me know recorded GI50 for `CN(C)CCNC(=O)c1cccc(NC(=O)c2ccccc2)c1[N+](=O)[O-]` , thanks.
Reply: > 100 µM (inactive)

Ask: Let me know recorded GI50 for `O=C(/C=C/c1ccc(/C=C/C(=O)c2ccc(O)cc2)cc1)c1ccc(O)cc1` , thanks.
Reply: > 100 µM (inactive)

Ask: Let me know recorded GI50 for `Oc1c(Cl)c(Cl)c(O)c(-c2cnc(-c3ncc(-c4c(O)c(Cl)c(Cl)c(O)c4Cl)s3)s2)c1Cl` , thanks.
Reply: 18.2 µM (inactive)

Ask: Let me know recorded GI50 for `CCC(C)(C)c1ccc(OCCCCNC(=O)c2ccc3ccccc3c2O)c(C(C)(C)CC)c1` , thanks.
Reply: 28.3 µM (inactive)

Further cases:
Ask: Let me know recorded GI50 for CN1C(=O)C23CCCC2CC1(c1ccccc1)S3 (configuration not stated) , thanks.
Reply: > 100 µM (inactive)

Ask: Let me know recorded GI50 for `S=C(S)NCCCn1ccnc1` , thanks.
Reply: > 100 µM (inactive)

###

- System: DMS-114
- Protocol Notes: NCI tumour cell line growth inhibition, 48 h
Activity calls are given as the source filed them. No stated cut-off is given here; in the data, active = GI50 up to about 1.1 µM and inactive = higher.
Please reply with one of these outcomes: active, inactive

Ask: Kindly provide the recorded test outcome for the following molecule: COc1cc([C@H]2c3cc4c(cc3[C@H](NCc3ccc(F)cc3)C3COC(=O)[C@H]32)OCO4)cc(OC)c1O (stereo partly drawn)
Reply: inactive

Ask: Kindly provide the recorded test outcome for the following molecule: `Cc1cnc2c(C)ccc([N+](=O)[O-])c2c1NCCCN(C)C`
Reply: inactive

Further cases:
Ask: Kindly provide the recorded test outcome for the following molecule: `O=C1c2ccccc2C(=O)c2sc(Nc3cccc(Cl)c3)nc21`
Reply: inactive

Ask: Kindly provide the recorded test outcome for the following molecule: O=C(OC1CCC(=C2SCCCS2)[C@H]1C1SCCCS1)c1ccccc1 (stereo partly drawn)
Reply: inactive

Ask: Kindly provide the recorded test outcome for the following molecule: O=C(Nc1ccc(Cl)cc1C(F)(F)F)C(=O)C1CCCS1(=O)=O (stereo not drawn)
Reply: inactive

###

- Tested on: K562
- Protocol Notes: NCI tumour cell line growth inhibition, 48 h
Activity calls are given as the source filed them. Cut-off read from the data, not from the text of the source: active = GI50 up to about 1.1 µM and inactive = higher.
Please reply with one of these outcomes: yes (1) (active), no (0) (inactive)

Solved entries:
Ask: Kindly provide the recorded test outcome for the following compound: COc1cc2c(cc1OC)-c1cc3ccc(OC)c(OC)c3c[n+]1CC2 [PALMATINE CHLORIDE]
Reply: no (0)

Ask: Kindly provide the recorded test outcome for the following compound: COC(=O)c1c2c(cc3c1CC1(Cc4cc5c(cc4C1=O)CCC5)C3)CCC2 (stereo unspecified)
Reply: no (0)

Ask: Kindly provide the recorded test outcome for the following compound: `CCN(CC)C(=S)Nc1ccc(-c2cc3ccc(O)cc3oc2=O)cc1`
Reply: no (0)

Further cases:
Ask: Kindly provide the recorded test outcome for the following compound: `CNc1c2c(c3nc4ccccc4c4c3c1N=C4)NCCC2=O`
Reply: no (0)
